Measured IC50 values are reported for all entries that follow.
- test-details: Inhibition of ABL T315I mutant in mouse BAF3 cells assessed as reduction in cell viability after 72 hrs by MTT assay
The reply should read as a number followed by its unit.

Which measured IC50 value corresponds to COc1cc(N2CCN(C)CC2)ccc1Nc1ncc(Cl)c(Oc2ccccc2NC(=O)CO)n1 ?
4.18 µM

Return reported IC50; argument: COc1cc(N2CCN(C)CC2)ccc1Nc1ncc(Cl)c(Oc2ccccc2[N+](=O)[O-])n1
11.6 µM

###

- test-details: Inhibition of ABL in mouse BAF3 cells assessed as reduction in cell viability after 72 hrs by MTT assay
endpoint-label: IC50 (µM)
Express your answer in µM, writing the number without its unit.

Some solved cases for reference:
COc1cc(N2CCN(C)CC2)ccc1Nc1ncc(Cl)c(Oc2cccc(NC(=O)CCOCc3ccccc3)c2)n1    2.47
COc1cc(N2CCN(C)CC2)ccc1Nc1ncc(Cl)c(Oc2ccccc2N=C=S)n1    5.56

As a next step, examine the compound that follows.
What does the data say about its IC50? Entry: COc1cc(N2CCN(C)CC2)ccc1Nc1ncc(Cl)c(Oc2cccc(NC(=O)/C=C/CN(C)C)c2)n1
7.02
